Source of measurements: patent EP4803512A1

# experiment: Pharmacokinetic assay in rats
# Type: in vivo, SD rats
# cond: rat, po, plasma, Intragastric administration (5 mg/kg)
quantity: AUC(0-t) (ng·h/mL)
Please state the figure in ng·h/mL; there is no need to write the unit.

# input What value of AUC(0-t) has been recorded for this entry: CC(O)(CO)C[C@](C)(N)COc1ccc(-c2ccnc(C(F)F)c2)nc1C(F)F (single isomer, unassigned)
# output 4050

----------
# experiment: Pharmacokinetic assay in mice
# Type: in vivo, ICR mice
# cond: mouse, plasma, Intravenous administration (2.5 mg/kg)
quantity: clearance (mL/min/kg)
Please state the figure in mL/min/kg; there is no need to write the unit.

# input What value of clearance has been recorded for this entry: CC(O)(CO)C[C@](C)(N)COc1ccc(-c2ccnc(C(F)F)c2)nc1C(F)F (single isomer, unassigned)
# output 57.8

----------
Quick list: pIC50 per entry.
# target.entity: hERG potassium channel (Homo sapiens, UniProt Q12809)
# Sequence (Q12809 whole entry): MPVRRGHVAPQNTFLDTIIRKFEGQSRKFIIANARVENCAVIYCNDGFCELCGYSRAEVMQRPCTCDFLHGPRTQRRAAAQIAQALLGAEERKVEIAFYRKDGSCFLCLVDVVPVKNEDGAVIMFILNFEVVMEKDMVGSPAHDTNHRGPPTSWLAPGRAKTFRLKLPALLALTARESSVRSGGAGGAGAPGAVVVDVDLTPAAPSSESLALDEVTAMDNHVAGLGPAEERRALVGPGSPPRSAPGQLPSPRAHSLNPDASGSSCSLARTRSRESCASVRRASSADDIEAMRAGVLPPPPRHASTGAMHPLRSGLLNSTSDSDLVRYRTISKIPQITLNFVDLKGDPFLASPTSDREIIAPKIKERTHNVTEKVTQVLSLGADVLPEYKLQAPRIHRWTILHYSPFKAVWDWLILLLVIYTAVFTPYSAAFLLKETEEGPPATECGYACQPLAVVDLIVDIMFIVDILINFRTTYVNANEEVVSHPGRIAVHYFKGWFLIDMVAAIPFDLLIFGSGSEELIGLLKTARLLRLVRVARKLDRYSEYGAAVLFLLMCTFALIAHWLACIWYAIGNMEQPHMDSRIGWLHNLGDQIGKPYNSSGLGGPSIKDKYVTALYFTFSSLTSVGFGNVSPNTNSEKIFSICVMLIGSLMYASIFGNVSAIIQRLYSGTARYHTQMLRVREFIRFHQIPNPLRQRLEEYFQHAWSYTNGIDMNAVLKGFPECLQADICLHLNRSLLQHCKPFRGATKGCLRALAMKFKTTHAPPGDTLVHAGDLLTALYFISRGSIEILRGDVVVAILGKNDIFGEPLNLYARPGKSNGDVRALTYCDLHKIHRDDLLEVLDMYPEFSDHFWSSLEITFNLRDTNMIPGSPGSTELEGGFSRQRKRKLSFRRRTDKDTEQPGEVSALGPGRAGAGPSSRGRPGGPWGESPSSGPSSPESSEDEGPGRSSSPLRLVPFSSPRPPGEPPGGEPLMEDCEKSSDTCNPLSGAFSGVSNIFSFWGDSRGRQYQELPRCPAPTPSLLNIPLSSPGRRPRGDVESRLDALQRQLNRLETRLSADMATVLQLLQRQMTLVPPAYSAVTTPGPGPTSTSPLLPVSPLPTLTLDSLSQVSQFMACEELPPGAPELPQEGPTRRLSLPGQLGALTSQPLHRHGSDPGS
# experiment: hERG potassium channel activity assay, manual whole-cell patch clamp
# cond: IC50, inhibition of hERG potassium channel current, CHO cells stably expressing hERG
Bear in mind: pIC50 is minus log10 of a mol/L concentration; give just that figure.

# input What value of pIC50 has been recorded for this entry: CC(O)(CO)C[C@](C)(N)COc1ccc(-c2ccnc(C(F)F)c2)nc1C(F)F (single isomer, unassigned) [Compound 1-2]
# output 4.86

# input What value of pIC50 has been recorded for this entry: CC(O)(CO)C[C@](C)(N)COc1ccc(-c2ccnc(C(F)F)c2)nc1C(F)F (single isomer, unassigned) [Compound 1-1]
# output 5.17

----------
# experiment: Pharmacokinetic assay in mice
# Format: in vivo, ICR mice
# cond: mouse, plasma, po, 10 mg/kg, Intragastric administration (10 mg/kg)
quantity: half-life

# input What value of half-life has been recorded for this entry: CC(O)(CO)C[C@](C)(N)COc1ccc(-c2ccnc(C(F)F)c2)nc1C(F)F (single isomer, unassigned)
# output 185 min
